From: patent US12421238B2

# measured on: JAK2 (Homo sapiens, UniProt O60674)
# Sequence (O60674 whole entry): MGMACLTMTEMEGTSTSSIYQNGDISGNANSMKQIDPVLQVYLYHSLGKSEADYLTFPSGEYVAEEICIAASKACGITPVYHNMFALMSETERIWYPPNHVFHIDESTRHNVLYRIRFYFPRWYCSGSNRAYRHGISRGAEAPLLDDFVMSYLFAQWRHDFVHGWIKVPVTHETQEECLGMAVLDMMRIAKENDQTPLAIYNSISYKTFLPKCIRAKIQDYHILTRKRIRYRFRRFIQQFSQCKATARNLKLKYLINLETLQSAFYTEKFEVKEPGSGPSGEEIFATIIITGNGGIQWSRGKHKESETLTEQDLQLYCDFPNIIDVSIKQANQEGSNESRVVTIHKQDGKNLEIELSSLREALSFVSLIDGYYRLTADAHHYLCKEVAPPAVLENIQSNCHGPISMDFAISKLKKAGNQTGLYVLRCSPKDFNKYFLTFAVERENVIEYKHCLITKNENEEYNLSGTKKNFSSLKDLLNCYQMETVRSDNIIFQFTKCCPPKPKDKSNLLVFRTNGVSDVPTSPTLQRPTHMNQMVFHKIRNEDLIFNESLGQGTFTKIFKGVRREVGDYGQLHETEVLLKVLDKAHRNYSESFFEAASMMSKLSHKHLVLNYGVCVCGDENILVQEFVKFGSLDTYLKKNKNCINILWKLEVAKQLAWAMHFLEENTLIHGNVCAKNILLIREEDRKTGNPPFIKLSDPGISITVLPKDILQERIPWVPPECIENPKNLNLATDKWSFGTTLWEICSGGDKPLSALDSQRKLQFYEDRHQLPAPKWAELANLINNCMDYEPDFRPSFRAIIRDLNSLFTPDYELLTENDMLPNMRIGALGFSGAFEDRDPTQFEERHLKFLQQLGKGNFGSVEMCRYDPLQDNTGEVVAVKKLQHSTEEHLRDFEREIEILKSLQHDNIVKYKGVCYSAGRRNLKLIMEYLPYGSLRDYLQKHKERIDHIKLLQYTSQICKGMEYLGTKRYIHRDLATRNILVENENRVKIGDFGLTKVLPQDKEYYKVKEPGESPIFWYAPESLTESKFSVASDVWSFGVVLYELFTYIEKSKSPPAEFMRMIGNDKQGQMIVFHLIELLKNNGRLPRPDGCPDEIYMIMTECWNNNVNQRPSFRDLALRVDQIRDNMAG
# procedure summary: Kinase activity test on JAK2 (Caliper EZ Reader conversion rate)
# measurement setup: ratio of IC50 values, selectivity for JAK2 over JAK1
Give measured JAK1/JAK2 for each item. Keep answers brief.

Ask | Data request, read-out JAK1/JAK2, for `CC(C)(C)NS(=O)(=O)c1cccc(N2CCc3cnc(Nc4ccc(N5CCOCC5)cc4)nc32)c1`
Reply | 100

Ask | Try this compound too: `CC(C)(C)NS(=O)(=O)c1cccc(N2CCc3cnc(Nc4ccc(OCCN5CCS(=O)(=O)CC5)cc4)nc32)c1`
Reply | 129

Ask | Try this compound too: `CC(C)(C)NS(=O)(=O)c1cccc(N2CCc3cnc(Nc4ccc(OCCN5CCCCC5)cc4)nc32)c1`
Reply | 90

Ask | Try this compound too: `CC(C)(C)NS(=O)(=O)c1cccc(N2CCc3cnc(Nc4ccc(CC5CCOCC5)cc4)nc32)c1`
Reply | 200

====

# measured on: JAK2 (Homo sapiens, UniProt O60674)
# procedure summary: Kinase activity test on JAK2 (Caliper EZ Reader conversion rate)
# measurement setup: ratio of IC50 values, selectivity for JAK2 over JAK3
Give measured JAK3/JAK2 for each item. Keep answers brief.
Simply state the number, no unit and no words.

Ask | Under JAK2 (Homo sapiens, UniProt O60674): JAK3/JAK2 value of CN1CCC(Cc2ccc(Nc3ncc4c(n3)N(c3cccc(S(=O)(=O)NC(C)(C)C)c3)CC4)cc2)CC1 [Compound I-7] ?
Reply | 1000

Ask | Try this molecule too: CC(C)(C)NS(=O)(=O)c1cccc(N2CCc3cnc(Nc4ccc(OC5CCNCC5)cc4)nc32)c1 [Compound I-19]
Reply | 1689

Ask | Try this molecule too: CN1CCN(c2ccc(Nc3ncc4c(n3)N(c3cccc(S(=O)(=O)NC(C)(C)C)c3)CC4)cc2)CC1 [Compound I-15]
Reply | 819

Ask | Try this molecule too: CN1CCN(CCOc2ccc(Nc3ncc4c(n3)N(c3cccc(S(=O)(=O)NC(C)(C)C)c3)CC4)cc2)CC1 [Compound I-4]
Reply | 850

Ask | Try this molecule too: CC(C)(C)NS(=O)(=O)c1cccc(N2CCc3cnc(Nc4ccc(OCCN5CCNCC5)cc4)nc32)c1 [Compound I-2]
Reply | 891

Ask | Try this molecule too: CC(C)(C)NS(=O)(=O)c1cccc(N2CCc3cnc(Nc4ccc(OCCN5CCCC5)cc4)nc32)c1 [Compound I-1]
Reply | 504

Ask | Try this molecule too: CC(C)(C)NS(=O)(=O)c1cccc(N2CCc3cnc(Nc4ccc(N5CCOCC5)cc4)nc32)c1 [Compound I-17]
Reply | 709

Ask | Try this molecule too: CC(C)(C)NS(=O)(=O)c1cccc(N2CCc3cnc(Nc4ccc(OCCN5CCS(=O)(=O)CC5)cc4)nc32)c1 [Compound I-6]
Reply | 1187

Ask | Try this molecule too: CC(C)(C)NS(=O)(=O)c1cccc(N2CCc3cnc(Nc4ccc(CN5CCS(=O)(=O)CC5)cc4)nc32)c1 [Compound I-9]
Reply | 782
